Biological target: T1, human DR3 (full length, on cells) (human, UniProt Q93038 25-417)
T1 sequence: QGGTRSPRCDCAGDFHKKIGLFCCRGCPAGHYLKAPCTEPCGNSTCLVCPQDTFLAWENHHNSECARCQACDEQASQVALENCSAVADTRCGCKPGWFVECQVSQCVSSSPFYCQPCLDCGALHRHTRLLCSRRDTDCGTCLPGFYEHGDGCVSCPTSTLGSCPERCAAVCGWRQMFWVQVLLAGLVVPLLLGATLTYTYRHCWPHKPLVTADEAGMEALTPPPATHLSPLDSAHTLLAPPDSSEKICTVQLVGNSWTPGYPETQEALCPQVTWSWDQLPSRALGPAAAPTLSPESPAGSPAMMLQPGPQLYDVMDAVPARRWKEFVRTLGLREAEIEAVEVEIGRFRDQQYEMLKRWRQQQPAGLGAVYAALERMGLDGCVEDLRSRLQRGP
Assay: cell-based or functional assay
IFN-γ, TL1A-costimulated lymphocytes, Fab 0.1 µg/mL overview
Numbers only; they are read as ng/mL.

// known answers, use as guide
1) 0169 (humanized IgG1 Fab of 0072; HC T28A S49A Y91; LC Q3A T5A S60A M4L) (Fab, V domains shown) VH: EVQLVESGGGLVQPGGSLRLSCAASGFTFSNYDMSWVRQAAGKGLEWVSAFSSDGYTFYPGAVKGRFTISRENAKNSLYLQMNSLRAGDTAVYYCARHADYANYPVMDYWGQGTLVTVSS VL: DIALAQSPSSLSASVGDRVTITCRASKSVSTSGYSYMHWYQQKPGKAPKLLIYLASNLEAGVPSRFSGSGSGTDFTLTISSLQPEDFATYYCQHSRELPLTFGGGTKVEIK : 58
2) 0171 (humanized IgG1 Fab of 0072 without back mutations) (Fab, V domains shown) VH: EVQLVESGGGLVQPGGSLRLSCAASGFTFSNYDMSWVRQATGKGLEWVSAFSSDGYTFYPGSVKGRFTISRENAKNSLYLQMNSLRAGDTAVYYCARHADYANYPVMDYWGQGTLVTVSS VL: DIQMTQSPSSLSASVGDRVTITCRASKSVSTSGYSYMHWYQQKPGKAPKLLIYLASNLESGVPSRFSGSGSGTDFTLTISSLQPEDFATYYCQHSRELPLTFGGGTKVEIK : 52
3) 0118 (chimeric Fab of 27F16, human IgG1 constant domain) (Fab, V domains shown) VH: EVQLVESGGDFVKPGGSLKLSCAASGFTFNNYGMSWVRQTPDKRLEWVAAISSGVTYTYYPDTVKGRFTISRDNAKNTLYLHMSSLKSEDTAMYYCGRHDDYGNHFDYWGQGTTLTVSS VL: DIVMTQSPSSLAMSLGQRVTMNCKSSQSLLNSHNQKNYLAWYQQKPGQSPKLLVYFASSRESGVPDRFIGSGSGTDFTLTISSVQAEDLADYFCQQHYSTPFTFGSGTKLEIKR : 151
4) 0170 (humanized IgG1 Fab of 0072; HC T28A S49A Y91; LC Q3A T5A S60A M4) (Fab, V domains shown) VH: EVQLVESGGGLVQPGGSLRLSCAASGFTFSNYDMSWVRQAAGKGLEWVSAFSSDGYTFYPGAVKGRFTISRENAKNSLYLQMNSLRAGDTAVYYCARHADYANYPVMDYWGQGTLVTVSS VL: DIAMAQSPSSLSASVGDRVTITCRASKSVSTSGYSYMHWYQQKPGKAPKLLIYLASNLEAGVPSRFSGSGSGTDFTLTISSLQPEDFATYYCQHSRELPLTFGGGTKVEIK : 46

Let us examine a further case.
IFN-γ, TL1A-costimulated lymphocytes, Fab 0.1 µg/mL in this record for 0173 (humanized IgG1 Fab of 0072; HC T28A S49A Y91S; LC Q3A T5A S60A M4L) (Fab, V domains shown) VH: EVQLVESGGGLVQPGGSLRLSCAASGFTFSNYDMSWVRQAAGKGLEWVSAFSSDGYTFYPGAVKGRFTISRENAKNSLYLQMNSLRAGDTAVYYCARHADYANSPVMDYWGQGTLVTVSS VL: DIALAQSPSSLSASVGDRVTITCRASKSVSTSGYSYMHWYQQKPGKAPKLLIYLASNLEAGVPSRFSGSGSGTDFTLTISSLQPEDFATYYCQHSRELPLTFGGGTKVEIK : 69
